Reference source: ChEMBL document CHEMBL3991601

# Target entity: Ribosomal protein S6 kinase alpha-4 (Homo sapiens); note: in the data inactive means no Kd found up to 30 µM
# Sequence (O75676 whole entry): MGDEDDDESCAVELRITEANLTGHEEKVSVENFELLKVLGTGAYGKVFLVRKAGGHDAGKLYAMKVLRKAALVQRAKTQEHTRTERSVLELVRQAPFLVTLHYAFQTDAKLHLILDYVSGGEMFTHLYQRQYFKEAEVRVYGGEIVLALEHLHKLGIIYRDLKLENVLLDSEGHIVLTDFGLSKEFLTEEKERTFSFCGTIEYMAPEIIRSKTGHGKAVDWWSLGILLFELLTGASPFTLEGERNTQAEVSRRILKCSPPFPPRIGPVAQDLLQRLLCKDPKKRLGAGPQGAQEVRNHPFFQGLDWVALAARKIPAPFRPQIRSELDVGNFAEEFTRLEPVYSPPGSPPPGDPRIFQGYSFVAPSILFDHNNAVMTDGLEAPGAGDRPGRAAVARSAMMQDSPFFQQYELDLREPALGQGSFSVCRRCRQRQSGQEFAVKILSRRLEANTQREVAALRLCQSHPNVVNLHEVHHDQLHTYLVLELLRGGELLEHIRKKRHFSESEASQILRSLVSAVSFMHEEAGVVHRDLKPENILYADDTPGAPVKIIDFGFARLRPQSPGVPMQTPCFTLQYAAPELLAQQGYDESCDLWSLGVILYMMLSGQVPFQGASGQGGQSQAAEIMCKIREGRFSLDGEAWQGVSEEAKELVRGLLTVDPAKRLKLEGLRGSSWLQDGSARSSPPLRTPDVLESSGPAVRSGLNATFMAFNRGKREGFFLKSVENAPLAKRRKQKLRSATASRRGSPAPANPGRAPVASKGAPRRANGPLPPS
Counter-ions that a name gives are not always drawn. Active and inactive are the calls of the source.
List of Kd values.
Value type: Kd

[[record]]
compound = "NC(=O)Nc1cc(-c2cccc(F)c2)sc1C(=O)N[C@H]1CCCNC1"
target_entity = "Ribosomal protein S6 kinase alpha-4 (Homo sapiens)"
measured_result = "0.879 µM (active)"

[[record]]
compound = "C#Cc1cccc(Nc2ncnc3cc(OC)c(OCCCCCCC(=O)NO)cc23)c1"
target_entity = "Ribosomal protein S6 kinase alpha-4 (Homo sapiens)"
measured_result = "> 30 µM (inactive)"

[[record]]
compound = "O=c1[nH]ccc2cc(OC3CCNCC3)ccc12 [SAR-407899 FREE BASE]"
target_entity = "Ribosomal protein S6 kinase alpha-4 (Homo sapiens)"
measured_result = "> 30 µM (inactive)"

[[record]]
compound = "CCS(=O)(=O)N1CCN(c2ccc(Nc3ncc(C(N)=O)c(NC4CC4)n3)cc2)CC1 [Cerdulatinib Hydrochloride]"
target_entity = "Ribosomal protein S6 kinase alpha-4 (Homo sapiens)"
measured_result = "> 30 µM (inactive)"

[[record]]
compound = "CCCCCCCCCCCCCCCCCCOP(=O)([O-])OC1CC[N+](C)(C)CC1"
target_entity = "Ribosomal protein S6 kinase alpha-4 (Homo sapiens)"
measured_result = "> 30 µM (inactive)"

[[record]]
compound = "CN1C/C=C/CCOc2cccc(c2)-c2ccnc(n2)Nc2cccc(c2)C1"
target_entity = "Ribosomal protein S6 kinase alpha-4 (Homo sapiens)"
measured_result = "> 30 µM (inactive)"

[[record]]
compound = "CC(=O)c1cnc2ccc(-c3cc(Cl)c(O)c(Cl)c3)nc2c1N[C@H]1CC[C@H](CN(C)C)CC1"
target_entity = "Ribosomal protein S6 kinase alpha-4 (Homo sapiens)"
measured_result = "0.111 µM (active)"

[[record]]
compound = "COc1ncc(-c2ccc3nccc(-c4ccnnc4)c3c2)cc1NS(=O)(=O)c1ccc(F)cc1F"
target_entity = "Ribosomal protein S6 kinase alpha-4 (Homo sapiens)"
measured_result = "> 30 µM (inactive)"

[[record]]
compound = "O=C(Nc1nc2cccc(-c3ccc(CN4CCS(=O)(=O)CC4)cc3)n2n1)C1CC1"
target_entity = "Ribosomal protein S6 kinase alpha-4 (Homo sapiens)"
measured_result = "> 30 µM (inactive)"

[[record]]
compound = "Nc1ncnc2c1c(-c1cccc(OCc3ccccc3)c1)cn2[C@H]1C[C@@H](CN2CCC2)C1"
target_entity = "Ribosomal protein S6 kinase alpha-4 (Homo sapiens)"
measured_result = "> 30 µM (inactive)"

[[record]]
compound = "COCc1c(-c2ccc(NC(=O)Nc3cc(C(F)(F)F)ccc3F)c(F)c2)c2c(N)ncnn2c1CN1CCOCC1"
target_entity = "Ribosomal protein S6 kinase alpha-4 (Homo sapiens)"
measured_result = "> 30 µM (inactive)"

[[record]]
compound = "Cc1[nH]c(/C=C2\\C(=O)Nc3ccccc32)c(C)c1CCC(=O)O [ORANTINIB]"
target_entity = "Ribosomal protein S6 kinase alpha-4 (Homo sapiens)"
measured_result = "1.39 µM (active)"

[[record]]
compound = "Cc1cnc(NC(=O)Nc2cc(Br)c(C)cc2OC[C@@H]2CNCCO2)cn1"
target_entity = "Ribosomal protein S6 kinase alpha-4 (Homo sapiens)"
measured_result = "> 30 µM (inactive)"

[[record]]
compound = "COc1cc([C@@H]2c3cc4c(cc3[C@H](O)[C@H]3COC(=O)[C@@H]23)OCO4)cc(OC)c1OC"
target_entity = "Ribosomal protein S6 kinase alpha-4 (Homo sapiens)"
measured_result = "> 30 µM (inactive)"

[[record]]
compound = "CCOc1cc2ncc(C#N)c(Nc3ccc(F)c(Cl)c3)c2cc1NC(=O)/C=C/CN(C)C"
target_entity = "Ribosomal protein S6 kinase alpha-4 (Homo sapiens)"
measured_result = "> 30 µM (inactive)"

[[record]]
compound = "CO[C@H]1C[C@@H]2CC[C@@H](C)[C@@](O)(O2)C(=O)C(=O)N2CCCC[C@H]2C(=O)O[C@H]([C@H](C)C[C@@H]2CC[C@@H](OP(C)(C)=O)[C@H](OC)C2)CC(=O)[C@H](C)/C=C(\\C)[C@@H](O)[C@@H](OC)C(=O)[C@H](C)C[C@H](C)/C=C/C=C/C=C/1C"
target_entity = "Ribosomal protein S6 kinase alpha-4 (Homo sapiens)"
measured_result = "> 30 µM (inactive)"

[[record]]
compound = "Cc1cc(C(=O)NOCCO)c(Nc2ccc(I)cc2F)n(C)c1=O"
target_entity = "Ribosomal protein S6 kinase alpha-4 (Homo sapiens)"
measured_result = "> 30 µM (inactive)"

[[record]]
compound = "C[C@H]1CNCCCN1S(=O)(=O)c1cccc2cncc(F)c12"
target_entity = "Ribosomal protein S6 kinase alpha-4 (Homo sapiens)"
measured_result = "> 30 µM (inactive)"

[[record]]
compound = "CCn1cc(-c2ccnc3[nH]c(-c4cccc(CN(C)C)c4)cc23)c(-c2ccc(NC(=O)N(C)C)cc2)n1"
target_entity = "Ribosomal protein S6 kinase alpha-4 (Homo sapiens)"
measured_result = "> 30 µM (inactive)"

[[record]]
compound = "NC1(c2ccc(-c3nc4ccn5c(=O)[nH]nc5c4cc3-c3ccccc3)cc2)CCC1"
target_entity = "Ribosomal protein S6 kinase alpha-4 (Homo sapiens)"
measured_result = "> 30 µM (inactive)"

[[record]]
compound = "COCC(=O)NC/C=C/c1ccc2ncnc(Nc3ccc(Oc4ccc(C)nc4)c(C)c3)c2c1"
target_entity = "Ribosomal protein S6 kinase alpha-4 (Homo sapiens)"
measured_result = "> 30 µM (inactive)"

[[record]]
compound = "C[C@@H](N)c1ccc(C(=O)Nc2ccnc3[nH]ccc23)cc1"
target_entity = "Ribosomal protein S6 kinase alpha-4 (Homo sapiens)"
measured_result = "> 30 µM (inactive)"

[[record]]
compound = "CO[C@H]1C[C@@H]2CC[C@@H](C)[C@@](O)(O2)C(=O)C(=O)N2CCCC[C@H]2C(=O)O[C@H]([C@H](C)C[C@@H]2CC[C@@H](O)[C@H](OC)C2)CC(=O)[C@H](C)/C=C(\\C)[C@@H](O)[C@@H](OC)C(=O)[C@H](C)C[C@H](C)/C=C/C=C/C=C/1C"
target_entity = "Ribosomal protein S6 kinase alpha-4 (Homo sapiens)"
measured_result = "> 30 µM (inactive)"

[[record]]
compound = "CCNC(=O)C#Cc1ccc2c(c1)NC(=O)/C2=C(\\Nc1ccc(CN(C)C)cc1)c1ccccc1"
target_entity = "Ribosomal protein S6 kinase alpha-4 (Homo sapiens)"
measured_result = "1.46 µM (active)"

[[record]]
compound = "Cc1nc(NC(=O)N2CCC[C@H]2C(N)=O)sc1-c1ccnc(C(C)(C)C(F)(F)F)c1"
target_entity = "Ribosomal protein S6 kinase alpha-4 (Homo sapiens)"
measured_result = "> 30 µM (inactive)"

[[record]]
compound = "Cc1cc(Nc2ncc(Cl)c(Nc3ccccc3S(=O)(=O)C(C)C)n2)c(OC(C)C)cc1C1CCNCC1"
target_entity = "Ribosomal protein S6 kinase alpha-4 (Homo sapiens)"
measured_result = "> 30 µM (inactive)"

[[record]]
compound = "COc1c(OCCCN2CCOCC2)ccc2c1N=C(NC(=O)c1cnc(N)nc1)N1CCN=C21"
target_entity = "Ribosomal protein S6 kinase alpha-4 (Homo sapiens)"
measured_result = "> 30 µM (inactive)"

[[record]]
compound = "CO[C@H]1C[C@@H]2CC[C@@H](C)[C@@](O)(O2)C(=O)C(=O)N2CCCC[C@H]2C(=O)O[C@H]([C@H](C)C[C@@H]2CC[C@@H](OC(=O)C(C)(CO)CO)[C@H](OC)C2)CC(=O)[C@H](C)/C=C(\\C)[C@@H](O)[C@@H](OC)C(=O)[C@H](C)C[C@H](C)/C=C/C=C/C=C/1C"
target_entity = "Ribosomal protein S6 kinase alpha-4 (Homo sapiens)"
measured_result = "> 30 µM (inactive)"

[[record]]
compound = "Cc1csc(-c2nnc(Nc3ccc(Oc4ncccc4-c4ccnc(N)n4)cc3)c3ccccc23)c1"
target_entity = "Ribosomal protein S6 kinase alpha-4 (Homo sapiens)"
measured_result = "2.07 µM (active)"


* * *

# Target entity: Tyrosine-protein kinase Lyn (Homo sapiens); note: in the data inactive means no Kd found up to 30 µM
# Sequence (P07948 whole entry): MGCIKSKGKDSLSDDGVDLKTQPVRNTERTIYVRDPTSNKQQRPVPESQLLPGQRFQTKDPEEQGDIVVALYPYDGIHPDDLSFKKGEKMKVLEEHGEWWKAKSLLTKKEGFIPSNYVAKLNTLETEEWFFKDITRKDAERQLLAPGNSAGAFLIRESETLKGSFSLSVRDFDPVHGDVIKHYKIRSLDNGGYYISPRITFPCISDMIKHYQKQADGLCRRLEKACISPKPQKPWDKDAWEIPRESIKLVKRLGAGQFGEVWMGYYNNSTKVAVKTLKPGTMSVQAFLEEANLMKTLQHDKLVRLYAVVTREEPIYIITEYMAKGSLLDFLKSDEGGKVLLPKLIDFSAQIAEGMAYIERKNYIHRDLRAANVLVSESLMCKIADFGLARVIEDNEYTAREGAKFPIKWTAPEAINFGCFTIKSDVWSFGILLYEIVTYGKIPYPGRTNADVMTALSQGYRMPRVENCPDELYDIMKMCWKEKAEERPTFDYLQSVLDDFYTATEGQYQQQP
Activity calls are given as the source filed them.
Outcome codes: class 1 = active, class 0 = inactive

[[record]]
structure = "O=C(Cc1ccc(-c2ccc(OCCN3CCOCC3)cc2)cn1)NCc1ccccc1"
target_entity = "Tyrosine-protein kinase Lyn (Homo sapiens)"
answer_label = "class 0"

[[record]]
structure = "CN(C[C@@H]1COCCO1)S(=O)(=O)Nc1ccc2ccc3ncc(-c4cnn(C)c4)cc3c(=O)c2c1"
target_entity = "Tyrosine-protein kinase Lyn (Homo sapiens)"
answer_label = "class 0"

[[record]]
structure = "COc1cc2ncnc(Oc3cccc(NC(=O)Nc4cc(C(C)(C)C(F)(F)F)on4)c3)c2cc1OC"
target_entity = "Tyrosine-protein kinase Lyn (Homo sapiens)"
answer_label = "class 1"

[[record]]
structure = "CO[C@H]1C[C@@H]2CC[C@@H](C)[C@@](O)(O2)C(=O)C(=O)N2CCCC[C@H]2C(=O)O[C@H]([C@H](C)C[C@@H]2CC[C@@H](OC(=O)C(C)(CO)CO)[C@H](OC)C2)CC(=O)[C@H](C)/C=C(\\C)[C@@H](O)[C@@H](OC)C(=O)[C@H](C)C[C@H](C)/C=C/C=C/C=C/1C"
target_entity = "Tyrosine-protein kinase Lyn (Homo sapiens)"
answer_label = "class 0"

[[record]]
structure = "C[C@@H](N)c1ccc(C(=O)Nc2ccnc3[nH]ccc23)cc1"
target_entity = "Tyrosine-protein kinase Lyn (Homo sapiens)"
answer_label = "class 0"

[[record]]
structure = "COc1ncc(-c2ccc3nccc(-c4ccnnc4)c3c2)cc1NS(=O)(=O)c1ccc(F)cc1F"
target_entity = "Tyrosine-protein kinase Lyn (Homo sapiens)"
answer_label = "class 0"

